Taken from patent US20100298542A1.

Target: soluble human FcRn (complex of FcRn extracellular domain and β2-microglobulin) (human)
Assay: SPR (Biacore 3000), method of Example 6: captured antibody, human FcRn as analyte, pH 6.0, steady state affinity
RECORDED_METRIC: Kd (nM)

[
  {
    "SUBSTANCE": "WT-IgG1 (humanized PM-1 antibody, TOCILIZUMAB; humanized anti-human IL-6 receptor IgG1 antibody)",
    "RECORDED_METRIC": "Kd",
    "REPORTED_VALUE": 1420
  }
]

---

Biological target: soluble human FcRn (complex of FcRn extracellular domain and β2-microglobulin) (human)
Assay: SPR (Biacore 3000), antibody captured on Protein L or anti-human kappa antibody, human FcRn as analyte, pH 6.0, steady state affinity
RECORDED_METRIC: Kd (nM)

[
  {
    "SUBSTANCE": "WT-IgG1 (humanized PM-1 antibody, TOCILIZUMAB; humanized anti-human IL-6 receptor IgG1 antibody)",
    "UNIT_LABEL": "nM",
    "REPORTED_VALUE": 2070
  }
]
